Assay: BSK_CASM3C_Proliferation: Cell Proliferation Assessment in the BioMAP Diversity Plus: CASM3C Assay (AID 2283047);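 note: sulforhodamine B total protein stain as relative cell number at 560 nm; sub-confluent cells exposed 48 h before staining; fitted both ways against DMSO so gain or loss of cell number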
Details: primary human coronary artery smooth muscle cells
Calls of active or inactive are those of the source. Rule for the calls: active = hit-call score of the fitted dose curve at least 0.9, where 1 is the maximum; inactive = score below 0.9.
Parameter call: string, one of active, inactive

These recorded examples may help you get a feel for the data.
{"inputSmiles": "OCC(CO)(CBr)CBr", "labelValue": "inactive"}
{"inputSmiles": "CN(Cc1cnc2nc(N)nc(N)c2n1)c1ccc(C(=O)N[C@@H](CCC(=O)O)C(=O)O)cc1", "labelValue": "inactive"}
{"inputSmiles": "C=COC(=O)C(C)(C)CCCCCC", "labelValue": "active"}
{"inputSmiles": "O=C1NS(=O)(=O)c2ccccc21", "labelValue": "inactive"}
{"inputSmiles": "Cc1[nH]nc2c1N=C(c1ccccc1Cl)c1cc([N+](=O)[O-])ccc1N2", "labelValue": "active"}
{"inputSmiles": "O=C(NO)c1ccccc1", "labelValue": "inactive"}
{"inputSmiles": "O=C(O)CCC(F)(F)C(F)(F)C(F)(F)C(F)(F)C(F)(F)C(F)(F)F", "labelValue": "inactive"}
{"inputSmiles": "O=S(=O)(O)C(F)(F)C(F)(F)C(F)(F)C(F)(F)C(F)(F)C(F)(F)C(F)(F)C(F)(F)C(F)(F)C(F)(F)F", "labelValue": "inactive"}
{"inputSmiles": "CCCCCCCCCCCCCCCCCC[N+](C)(C)Cc1ccccc1", "labelValue": "active"}
{"inputSmiles": "Cc1ccc(C(=O)c2ccccc2)cc1", "labelValue": "inactive"}

# input for lookup
# input Recorded test outcome, item `O=C(CCCN1CCC(O)(c2ccc(Cl)cc2)CC1)c1ccc(F)cc1`
# output active

----------
Read-out: Matrix Metallopeptidase 9 (MMP9), MMP9 (gene 4318)
Assay: BSK_KF3CT_MMP9: BioMAP Diversity Plus: KF3CT Assay for Matrix Metallopeptidase 9 (MMP9) Biomarker Activity (AID 2283074)
Details: primary human keratinocytes with fibroblasts; actives raise or lower the signal
Calls of active or inactive are those of the source. The calls were made as follows: active = hit-call score of the fitted dose curve at least 0.9, where 1 is the maximum; inactive = score below 0.9.
Parameter call: string, one of Yes (active), No (inactive)

These recorded examples may help you get a feel for the data.
{"compound": "Cc1[nH]nc2c1N=C(c1ccccc1Cl)c1cc([N+](=O)[O-])ccc1N2", "labelValue": "Yes"}
{"compound": "CCC(C)c1ccccc1O (stereo not given)", "labelValue": "No"}
{"compound": "COc1cccc(O)c1", "labelValue": "No"}
{"compound": "CC1=NN(c2ccccc2)C(=O)C1", "labelValue": "No"}

# input Recorded test outcome, item `Oc1ccc(Cc2ccccc2O)cc1`
# output No

# input Recorded test outcome, item `O=C(CCCN1CCC(O)(c2ccc(Cl)cc2)CC1)c1ccc(F)cc1`
# output No

# input Recorded test outcome, item `C=COC(=O)C(C)(C)CCCCCC`
# output Yes

# input Recorded test outcome, item `COc1cc(OC)nc(NC(=O)NS(=O)(=O)Nc2ccccc2C(=O)N(C)C)n1`
# output No

----------
Read-out: Cytochrome P450 3A7 (Homo sapiens) (UniProt P24462)
Sequence (P24462 whole entry, looked up): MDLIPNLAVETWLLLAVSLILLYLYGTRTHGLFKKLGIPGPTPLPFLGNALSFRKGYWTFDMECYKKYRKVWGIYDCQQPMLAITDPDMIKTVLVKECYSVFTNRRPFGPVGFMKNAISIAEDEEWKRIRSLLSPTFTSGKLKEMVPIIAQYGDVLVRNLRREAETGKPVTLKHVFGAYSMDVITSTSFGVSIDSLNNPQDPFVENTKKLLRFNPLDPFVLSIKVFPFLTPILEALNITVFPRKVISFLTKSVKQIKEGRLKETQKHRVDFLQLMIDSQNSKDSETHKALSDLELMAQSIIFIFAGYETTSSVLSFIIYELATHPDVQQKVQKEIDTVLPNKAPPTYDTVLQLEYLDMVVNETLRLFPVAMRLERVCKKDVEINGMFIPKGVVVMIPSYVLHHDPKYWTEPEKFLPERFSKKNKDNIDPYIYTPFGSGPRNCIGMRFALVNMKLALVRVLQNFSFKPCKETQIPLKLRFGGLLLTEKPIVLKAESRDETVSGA
Experiment: LTEA_HepaRG_CYP3A7: Life Technologies and Expression Analysis (LTEA) Assay for CYP3A7 using HepaRG (AID 2283492)
Details: mRNA level, 48 h; actives raise or lower the signal
The source made the active and inactive calls. How the source made its calls: active means hit-call score of the fitted dose curve at least 0.9, where 1 is the maximum; inactive means score below 0.9.
Parameter call: string, one of YES (active), NO (inactive)

{"inputSmiles": "CC(=O)Nc1ccc(O)cc1", "labelValue": "NO"}
{"inputSmiles": "CCCCC=O", "labelValue": "NO"}
{"inputSmiles": "CN(Cc1cnc2nc(N)nc(N)c2n1)c1ccc(C(=O)N[C@@H](CCC(=O)O)C(=O)O)cc1", "labelValue": "NO"}
{"inputSmiles": "CCCCCCCCCCCCCCC", "labelValue": "YES"}
{"inputSmiles": "OCC(CO)(CBr)CBr", "labelValue": "NO"}

# input for lookup
# input Recorded test outcome, item `O=C(CCCN1CCC(O)(c2ccc(Cl)cc2)CC1)c1ccc(F)cc1`
# output YES

----------
Molecular target: Sodium channel protein type 1 subunit alpha (Rattus norvegicus)
Assay: NVS_IC_rNaCh_site2: NovaScreen (NVS) Ion Channel Assay for rat Sodium Channel, Site 2 (NaCh) (AID 2283322);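 note: hit means loss of radioligand binding signal relative to DMSO so AC50 marks displacement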
Records with an inconclusive call do not appear. Activity calls are given as the source filed them. How the source made its calls: active means hit-call score of the fitted dose curve at least 0.9, where 1 is the maximum; inconclusive means response in the unintended direction; inactive means score below 0.9.
Parameter call: string, one of active, inactive

These recorded examples may help you get a feel for the data.
{"inputSmiles": "N=C(N)c1ccc(OCCCCCOc2ccc(C(=N)N)cc2)cc1", "labelValue": "active"}
{"inputSmiles": "CCCCCc1ccc(O)cc1", "labelValue": "active"}

# input Recorded test outcome, item `CN(C)CCOC(c1ccccc1)c1ccccc1`
# output active

# input Recorded test outcome, item `CCCCc1oc2ccccc2c1C(=O)c1cc(I)c(OCCN(CC)CC)c(I)c1`
# output active

# input Recorded test outcome, item `O=C(CCCN1CCC(O)(c2ccc(Cl)cc2)CC1)c1ccc(F)cc1`
# output active

# input Recorded test outcome, item `CCCCCCCCCCCCCCCCCC[N+](C)(C)Cc1ccccc1`
# output inactive

# input Recorded test outcome, item `C=CC(=O)OCCN(CC)CC`
# output inactive

----------
Read-out: Monocyte Chemoattractant Protein-1 (MCP1), CCL2 (gene 6347)
Test: BSK_hDFCGF_MCP1: BioMAP Diversity Plus: hDFCGF Assay for Monocyte Chemoattractant Protein-1 (MCP1) Biomarker Activity (AID 2284285)
Details: primary human foreskin fibroblasts
Activity calls are given as the source filed them. The calls were made as follows: active = hit-call score of the fitted dose curve at least 0.9, where 1 is the maximum; inactive = score below 0.9.
measurementLabel: outcome

# example entries with known answers
{"inputSmiles": "O=C(CC(=O)C(F)(F)C(F)(F)C(F)(F)F)c1cccs1", "endpointResult": "inactive"}
{"inputSmiles": "OCC(F)(F)C(F)(F)C(F)(F)C(F)(F)C(F)(F)C(F)(F)C(F)(F)C(F)(F)C(F)(F)C(F)(F)C(F)(F)F", "endpointResult": "inactive"}
{"inputSmiles": "Oc1ccc(Cc2ccccc2O)cc1", "endpointResult": "inactive"}
{"inputSmiles": "O=P(O)(O)CCC(F)(F)C(F)(F)C(F)(F)C(F)(F)C(F)(F)C(F)(F)F", "endpointResult": "inactive"}

Next molecule, outcome to be filled in.
Noted for `O=C(O)CCC(F)(F)C(F)(F)C(F)(F)C(F)(F)C(F)(F)C(F)(F)F` : its outcome reads inactive

----------
Experiment: APR_HepG2_CellCycleArrest_24hr: Apredica 24-hour HepG2 Assay for Cell Cycle Arrest (AID 2282905);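 note: cell cycle arrest scored as ratio of 2N to 4N nuclear DNA content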
Conditions: imaging, actives raise or lower the signal
Method: APR_HepG2_24hr is a cell-based, multiplexed-readout assay that uses HepG2, a human liver cell line, with measurements taken at 24 hours after chemical dosing in a 384-well plate.APR_HepG2_CellCycleArrest_24hr is one of 10 assay component(s) measured or calculated from the APR_HepG2_24hr assay. […] This assay endpoint, APR_HepG2_CellCycleArrest_24hr, was analyzed with bidirectional fitting relative to DMSO as the negative control and baseline of activity. […]
Activity calls are given as the source filed them. How the source made its calls: active means hit-call score of the fitted dose curve at least 0.9, where 1 is the maximum; inactive means score below 0.9.
Parameter call: string, one of active, inactive

These recorded examples may help you get a feel for the data.
{"compound": "Cc1[nH]nc2c1N=C(c1ccccc1Cl)c1cc([N+](=O)[O-])ccc1N2", "labelValue": "active"}
{"compound": "O=C1NS(=O)(=O)c2ccccc21", "labelValue": "inactive"}
{"compound": "CCCCCCCCCCCCCCC", "labelValue": "inactive"}
{"compound": "CCCCC(CC)C(=O)O (stereo unspecified)", "labelValue": "inactive"}
{"compound": "OCC(CO)(CBr)CBr", "labelValue": "inactive"}

# input for lookup
# input Recorded test outcome, item `N=C(N)c1ccc(OCCCCCOc2ccc(C(=N)N)cc2)cc1`
# output inactive

----------
Read-out: Tissue plasminogen activator (tPA), PLAT (gene 5327)
Assay: BSK_BE3C_tPA: BioMAP Diversity Plus: BE3C Assay for Tissue plasminogen activator (tPA) Biomarker Activity (AID 2283041)
Details: primary human bronchial epithelial cells; actives raise or lower the signal
Calls of active or inactive are those of the source. How the source made its calls: active means hit-call score of the fitted dose curve at least 0.9, where 1 is the maximum; inactive means score below 0.9.
Parameter call: string, one of active, inactive

These recorded examples may help you get a feel for the data.
{"inputSmiles": "Cc1[nH]nc2c1N=C(c1ccccc1Cl)c1cc([N+](=O)[O-])ccc1N2", "labelValue": "active"}
{"inputSmiles": "CC1=NN(c2ccccc2)C(=O)C1", "labelValue": "inactive"}
{"inputSmiles": "CN(Cc1cnc2nc(N)nc(N)c2n1)c1ccc(C(=O)N[C@@H](CCC(=O)O)C(=O)O)cc1", "labelValue": "inactive"}

# input for lookup
# input Recorded test outcome, item `CN(CCO)S(=O)(=O)C(F)(F)C(F)(F)C(F)(F)C(F)(F)C(F)(F)C(F)(F)C(F)(F)C(F)(F)F`
# output inactive

----------
Read-out: Interleukin-8 (IL8), CXCL8 (gene 3576)
Test: BSK_hDFCGF_IL8: BioMAP Diversity Plus: hDFCGF Assay for Interleukin-8 (IL8) Biomarker Activity (AID 2283058)
Settings: primary human foreskin fibroblasts; actives raise or lower the signal
Activity calls are given as the source filed them. The calls were made as follows: active = hit-call score of the fitted dose curve at least 0.9, where 1 is the maximum; inactive = score below 0.9.
Parameter call: string, one of Y (active), N (inactive)

These recorded examples may help you get a feel for the data.
{"inputSmiles": "CN(C)CCOC(c1ccccc1)c1ccccc1", "labelValue": "N"}
{"inputSmiles": "O=C(CCCN1CCC(O)(c2ccc(Cl)cc2)CC1)c1ccc(F)cc1", "labelValue": "N"}
{"inputSmiles": "CCCCCCCCCCCCCCC", "labelValue": "N"}
{"inputSmiles": "O=C(O)CCC(F)(F)C(F)(F)C(F)(F)C(F)(F)C(F)(F)C(F)(F)F", "labelValue": "N"}
{"inputSmiles": "OCC(F)(F)C(F)(F)C(F)(F)C(F)(F)C(F)(F)C(F)(F)C(F)(F)C(F)(F)C(F)(F)C(F)(F)C(F)(F)F", "labelValue": "N"}

# input Recorded test outcome, item `O=C(NO)c1ccccc1`
# output N

# input Recorded test outcome, item `C[C@]12CC[C@@H]3c4ccc(O)cc4CC[C@H]3[C@@H]1C[C@@H](O)[C@@H]2O`
# output N

# input Recorded test outcome, item `O=C(O)CCC(F)(F)C(F)(F)C(F)(F)C(F)(F)C(F)(F)F`
# output N

# input Recorded test outcome, item `Cc1[nH]nc2c1N=C(c1ccccc1Cl)c1cc([N+](=O)[O-])ccc1N2`
# output N

# input Recorded test outcome, item `CCCCCCCCCCCCCCCCCC[N+](C)(C)Cc1ccccc1`
# output Y

# input Recorded test outcome, item `Oc1cc2ccccc2cc1O`
# output N
